System: KRAS PDC multicell spheroid viability;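 also: spheroids exposed to compounds for 7 days; 100% = DMSO vehicle control viability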
Experiment: Anticancer human tumor 825966-067-R-J1-PDC patient-derived colon carcinoma cell line growth inhibition [KRAS2]
Conditions: second compound 1 µM; first compound 0.001 µM; stronger effect = lower value

| compound | viability, T/C (%) |
| --- | --- |
| CC(C)n1nc(-c2ccc3oc(N)nc3c2)c2c(N)ncnc21 + COc1cc2nc(C)nc(NC(C)c3cc(N)cc(C(F)(F)F)c3)c2cc1OC1CCOC1 | 103 |
| CC(C)n1nc(-c2ccc3oc(N)nc3c2)c2c(N)ncnc21 + C=CC(=O)N1CCN(c2nc(OCC3CCCN3C)nc3c2CCN(c2cccc4cccc(C)c24)C3)CC1CC#N | 108 |
| CC(=O)Nc1cccc(-n2c(=O)n(C3CC3)c(=O)c3c(Nc4ccc(I)cc4F)n(C)c(=O)c(C)c32)c1 + C=CC(=O)N1CCN(c2nc(OCC3CCCN3C)nc3c2CCN(c2cccc4cccc(C)c24)C3)CC1CC#N | 102 |
| CC(=O)Nc1cccc(-n2c(=O)n(C3CC3)c(=O)c3c(Nc4ccc(I)cc4F)n(C)c(=O)c(C)c32)c1 + CC1OCC2(CCN(c3cnc(Sc4ccnc(N)c4Cl)c(N)n3)CC2)C1N | 105 |
| Cn1ncnc1[C@H]1c2n[nH]c(=O)c3cc(F)cc(c23)N[C@@H]1c1ccc(F)cc1 + CNCc1ccccc1-c1csc(C(C)Nc2nc(C)nc3cc(OC)c(OC)cc23)c1 | 97.9 |
| CN(C)C/C=C/C(=O)Nc1cc2c(Nc3ccc(F)c(Cl)c3)ncnc2cc1O[C@H]1CCOC1 + CC1OCC2(CCN(c3cnc(Sc4ccnc(N)c4Cl)c(N)n3)CC2)C1N | 118 |
| CN(C)C/C=C/C(=O)Nc1cc2c(Nc3ccc(F)c(Cl)c3)ncnc2cc1O[C@H]1CCOC1 + COc1cc2nc(C)nc(NC(C)c3cc(N)cc(C(F)(F)F)c3)c2cc1OC1CCOC1 | 96 |
| CN(C)C/C=C/C(=O)Nc1cc2c(Nc3ccc(F)c(Cl)c3)ncnc2cc1O[C@H]1CCOC1 + CNCc1ccccc1-c1csc(C(C)Nc2nc(C)nc3cc(OC)c(OC)cc23)c1 | 101 |
| CC(=O)Nc1cccc(-n2c(=O)n(C3CC3)c(=O)c3c(Nc4ccc(I)cc4F)n(C)c(=O)c(C)c32)c1 + CNCc1ccccc1-c1csc(C(C)Nc2nc(C)nc3cc(OC)c(OC)cc23)c1 | 112 |
